Biological target: recombinant EphA4 ligand binding domain (Homo sapiens, UniProt P54764, C204A)
Construct: His tag (N); made in house; host or cells: E. coli Rosetta-Gami B(DE3), pET15b
Sequence (P54764 29-209 C204A): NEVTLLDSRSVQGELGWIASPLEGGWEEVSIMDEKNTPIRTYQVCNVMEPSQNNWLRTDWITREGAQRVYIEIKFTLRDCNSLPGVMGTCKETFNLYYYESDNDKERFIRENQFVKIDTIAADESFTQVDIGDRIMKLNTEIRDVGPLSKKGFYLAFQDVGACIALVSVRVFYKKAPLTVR
Assay: Isothermal titration calorimetry (ITC) against EphA4-LBD
Conditions: ITC, EphA4-LBD
Square brackets hold non-standard residues; d marks the D form. Peptide text beside a SMILES is read from it. * marks the point of attachment. Phe(4-(2-MeO-Ph)) = COc1ccccc1-c1ccc(C[C@H](N)C(=O)O)cc1; Cyclohexanoyl(1S,3S-3-NH2) = N[C@H]1CCC[C@H](C(=O)*)C1; Trp(5-OMe) = COc1ccc2[nH]cc(C[C@H](N)C(=O)O)c2c1; Trp(5-OH) = N[C@@H](Cc1c[nH]c2ccc(O)cc12)C(=O)O; NHPh(4-CH2-morpholino) = c1cc(N*)ccc1CN1CCOCC1; NH(4-morpholinophenyl) = c1cc(N2CCOCC2)ccc1N*; Bip = N[C@@H](Cc1ccc(-c2ccccc2)cc1)C(=O)O; hArg = N=C(N)NCCCC[C@H](N)C(=O)O; X2 = Fc1cc(N*)ccc1N1CCOCC1; X3 = c1cc(N2CCNCC2)ccc1N*
Quantity Name: -TΔS (kcal/mol)

{"columns": ["Molecule", "Result Number"],
 "data": [
  ["COc1ccc2[nH]cc(C[C@H](NC(=O)[C@H]3CCC[C@H](N)C3)C(=O)N[C@@H](Cc3ccc(-c4ccccc4)cc3)C(=O)N[C@@H](CCCCNC(=N)N)C(=O)NCC(=O)Nc3ccc(CN4CCOCC4)cc3)c2c1 [Compound 4] ({Cyclohexanoyl(1S,3S-3-NH2)}-[Trp(5-OMe)][Bip][hArg]G-{NHPh(4-CH2-morpholino)})", -3.57],
  ["COc1ccccc1-c1ccc(C[C@H](NC(=O)[C@H](Cc2c[nH]c3ccc(O)cc23)NC(=O)[C@H]2CCC[C@H](N)C2)C(=O)N[C@@H](CCCCNC(=N)N)C(=O)NCC(=O)Nc2ccc(N3CCOCC3)cc2)cc1 [Compound 3] ({Cyclohexanoyl(1S,3S-3-NH2)}-[Trp(5-OH)][Phe(4-(2-MeO-Ph))][hArg]G-{NH(4-morpholinophenyl)})", -0.60],
  ["COc1ccc2[nH]cc(C[C@H](NC(=O)[C@H]3CCC[C@H](N)C3)C(=O)N[C@@H](Cc3ccc(-c4ccccc4OC)cc3)C(=O)N[C@@H](CCCCNC(=N)N)C(=O)NCC(=O)Nc3ccc(CN4CCOCC4)cc3)c2c1 [Compound 5] ({Cyclohexanoyl(1S,3S-3-NH2)}-[Trp(5-OMe)][Phe(4-(2-MeO-Ph))][hArg]G-{NHPh(4-CH2-morpholino)})", -2.25],
  ["COc1ccccc1-c1ccc(C[C@H](NC(=O)[C@H](Cc2c[nH]c3ccc(O)cc23)NC(=O)[C@H]2CCC[C@H](N)C2)C(=O)N[C@@H](CCCCNC(=N)N)C(=O)NCC(=O)Nc2ccc(N3CCOCC3)c(F)c2)cc1 [Compound 16] ({Cyclohexanoyl(1S,3S-3-NH2)}-[Trp(5-OH)][Phe(4-(2-MeO-Ph))][hArg]G-X2)", 0.58],
  ["N=C(N)NCCCC[C@H](NC(=O)[C@H](Cc1ccc(-c2ccccc2)cc1)NC(=O)[C@H](Cc1c[nH]c2ccc(O)cc12)NC(=O)[C@H]1CCC[C@H](N)C1)C(=O)NCC(=O)Nc1ccc(CN2CCOCC2)cc1 [Compound 9] ({Cyclohexanoyl(1S,3S-3-NH2)}-[Trp(5-OH)][Bip][hArg]G-{NHPh(4-CH2-morpholino)})", -1.90],
  ["N=C(N)NCCCC[C@H](NC(=O)[C@H](Cc1ccc(-c2ccccc2)cc1)NC(=O)[C@H](Cc1c[nH]c2ccc(O)cc12)NC(=O)[C@H]1CCC[C@H](N)C1)C(=O)NCC(=O)Nc1ccc(N2CCNCC2)cc1 [Compound 10] ({Cyclohexanoyl(1S,3S-3-NH2)}-[Trp(5-OH)][Bip][hArg]G-X3)", -1.35],
  ["N=C(N)NCCCC[C@H](NC(=O)[C@H](Cc1ccc(-c2ccccc2)cc1)NC(=O)[C@H](Cc1c[nH]c2ccc(O)cc12)NC(=O)[C@H]1CCC[C@H](N)C1)C(=O)NCC(=O)Nc1ccc(N2CCOCC2)cc1 [Compound 8] ({Cyclohexanoyl(1S,3S-3-NH2)}-[Trp(5-OH)][Bip][hArg]G-{NH(4-morpholinophenyl)})", -0.88],
  ["COc1ccccc1-c1ccc(C[C@H](NC(=O)[C@H](Cc2c[nH]c3ccc(O)cc23)NC(=O)[C@H]2CCC[C@H](N)C2)C(=O)N[C@@H](CCCCNC(=N)N)C(=O)NCC(=O)Nc2ccc(CN3CCOCC3)cc2)cc1 [Compound 2] ({Cyclohexanoyl(1S,3S-3-NH2)}-[Trp(5-OH)][Phe(4-(2-MeO-Ph))][hArg]G-{NHPh(4-CH2-morpholino)})", -0.97]
]}

* * *

Assay: In vivo pharmacokinetics and brain exposure
Conditions: mouse, brain; mice, 50 mg/Kg IP, 30 min; read-out: Amount of compound per mg of wet brain tissue
Square brackets hold non-standard residues; d marks the D form. Peptide text beside a SMILES is read from it. * marks the point of attachment. Cyclohexanoyl(1S,3S-3-NH2) = N[C@H]1CCC[C@H](C(=O)*)C1; Trp(5-OH) = N[C@@H](Cc1c[nH]c2ccc(O)cc12)C(=O)O; NH(4-morpholinophenyl) = c1cc(N2CCOCC2)ccc1N*; Bip = N[C@@H](Cc1ccc(-c2ccccc2)cc1)C(=O)O; hArg = N=C(N)NCCCC[C@H](N)C(=O)O

{"columns": ["Compound", "tissue level at time at 0.5 h [ng/g]"],
 "data": [
  ["N=C(N)NCCCC[C@H](NC(=O)[C@H](Cc1ccc(-c2ccccc2)cc1)NC(=O)[C@H](Cc1c[nH]c2ccc(O)cc12)NC(=O)[C@H]1CCC[C@H](N)C1)C(=O)NCC(=O)Nc1ccc(N2CCOCC2)cc1 [Compound 8] ({Cyclohexanoyl(1S,3S-3-NH2)}-[Trp(5-OH)][Bip][hArg]G-{NH(4-morpholinophenyl)})", 4600]
]}

* * *

Experiment: In vivo pharmacokinetics and brain exposure
Conditions: mouse, plasma; mice, 50 mg/Kg IP, 1 hr; read-out: Plasma drug concentration
Square brackets hold non-standard residues; d marks the D form. Peptide text beside a SMILES is read from it. * marks the point of attachment. Cyclohexanoyl(1S,3S-3-NH2) = N[C@H]1CCC[C@H](C(=O)*)C1; Trp(5-OH) = N[C@@H](Cc1c[nH]c2ccc(O)cc12)C(=O)O; NH(4-morpholinophenyl) = c1cc(N2CCOCC2)ccc1N*; Bip = N[C@@H](Cc1ccc(-c2ccccc2)cc1)C(=O)O; hArg = N=C(N)NCCCC[C@H](N)C(=O)O
Quantity Name: level at 1 h

{"columns": ["Compound", "Result"],
 "data": [
  ["N=C(N)NCCCC[C@H](NC(=O)[C@H](Cc1ccc(-c2ccccc2)cc1)NC(=O)[C@H](Cc1c[nH]c2ccc(O)cc12)NC(=O)[C@H]1CCC[C@H](N)C1)C(=O)NCC(=O)Nc1ccc(N2CCOCC2)cc1 [Compound 8] ({Cyclohexanoyl(1S,3S-3-NH2)}-[Trp(5-OH)][Bip][hArg]G-{NH(4-morpholinophenyl)})", "7740 ng/mL"]
]}
